Listed below: Human GIPR cAMP, HEK293T EC50 values for each entry.
Target: T1, full-length human GIPR with an N-terminal FLAG tag, overexpressed on HEK-293T cells (human, UniProt P48546 22-466)
T1 sequence (looked up): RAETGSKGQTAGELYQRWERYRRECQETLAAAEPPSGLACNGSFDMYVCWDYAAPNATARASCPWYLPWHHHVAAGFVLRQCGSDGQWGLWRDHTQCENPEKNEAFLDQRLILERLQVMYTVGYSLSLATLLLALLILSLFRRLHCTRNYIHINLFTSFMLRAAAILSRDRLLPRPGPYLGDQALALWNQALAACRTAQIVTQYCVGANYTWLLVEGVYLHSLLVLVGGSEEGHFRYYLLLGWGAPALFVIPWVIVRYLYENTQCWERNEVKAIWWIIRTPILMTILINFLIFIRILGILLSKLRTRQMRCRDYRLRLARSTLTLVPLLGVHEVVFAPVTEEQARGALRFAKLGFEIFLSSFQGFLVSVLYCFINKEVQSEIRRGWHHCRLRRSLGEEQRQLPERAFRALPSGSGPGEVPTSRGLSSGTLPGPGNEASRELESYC
Assay: cell-based or functional assay
Starred links: 1 amine or outer side, 2 acyl side, 3 side chain; linkers in the order of their positions; H or OH if unused. Non-standard residues stand in square brackets, D forms with d. Groups on a side chain read outwards from the residue. No end group written: not given here. *: point of attachment. C16 diacid = O=C(O)CCCCCCCCCCCCCCC(=O)*; C15 diacid = O=C(O)CCCCCCCCCCCCCC(=O)*; γGlu = O=C(O)[C@H](CCC(=O)[*:2])N[*:1]; AEEA = NCCOCCOCC(=O)O; Aib = CC(C)(N)C(=O)O; C16 = lipid C16
All answers are understood in pM, so give the number only.

Example binders with recorded Human GIPR cAMP, HEK293T EC50:
- binder: "Me-Y[Aib]EGTFISDYSIALDR[Aib]K([AEEA-AEEA-γGlu-γGlu-C15 diacid])Q[Aib]NFVNWLLAQSG-OH [Compound 161]"
  Human GIPR cAMP, HEK293T EC50 / pM: 0.3
- binder: "Me-Y[Aib]EGTFISDYSI[Aib]LDR[Aib]AQ[Aib]K([AEEA-AEEA-γGlu-γGlu-C15 diacid])FVNWLLAQSPG-OH [Compound 183]"
  Human GIPR cAMP, HEK293T EC50 / pM: 0.5
- binder: "YXEGTFISDYSIALDRXAQXDFVNWLLAQRPSSGAPPPS (N-terminal Me (Me-Tyr1); Aib at 2, 20; Km = Lys(R) at 17, linker printed GS (read as G5 = GGGGG), lipid C15DA (C15 diacid); C-terminal OH) [Compound 165]"
  Human GIPR cAMP, HEK293T EC50 / pM: 0.4
- binder: "Me-Y[Aib]EGTFISDYSIALDR[Aib]AQ[Aib]K([2OEG-γGlu-γGlu-C15 diacid])FVNWLLAQK-NH2 [Compound 210]"
  Human GIPR cAMP, HEK293T EC50 / pM: 0.3
- binder: "YXEGTFISDYSIALDRXAQXNFVNWLLAQSPSSGAPPPS (N-terminal Me (Me-Tyr1); Aib at 2, 20; Km = Lys(R) at 17, linker printed GS (read as G5 = GGGGG), lipid C15DA (C15 diacid); C-terminal NH2) [Compound 164]"
  Human GIPR cAMP, HEK293T EC50 / pM: 0.2

INPUT: Please give the documented Human GIPR cAMP, HEK293T EC50 of Me-Y[Aib]EGTFISDYSIAK([AEEA-AEEA-γGlu-C16 diacid])DRIAQ[Aib]NFVNWLLAQK [Compound 196]
OUTPUT: 0.2

INPUT: Please give the documented Human GIPR cAMP, HEK293T EC50 of Me-Y[Aib]EGTFISDYSIALDR[Aib]HQ[Aib]NFVNWK([γGlu-C16])LAQR-NH2 [Compound 190]
OUTPUT: 15.8

INPUT: Please give the documented Human GIPR cAMP, HEK293T EC50 of Me-Y[Aib]EGTFISDYSIALDR[Aib]KQ[Aib]DFVNWLLAQRG-OH (not fully specified (residues 1, 18)) [Compound 169]
OUTPUT: 0.6

INPUT: Please give the documented Human GIPR cAMP, HEK293T EC50 of YXEGTFISDYSIXLDRXAQXDFVNWLLAQSPG (N-terminal Me (Me-Tyr1); Aib at 2, 13, 20; Km = Lys(R) at 17, linker printed GS (read as G5 = GGGGG), lipid C15DA (C15 diacid); C-terminal OH) [Compound 186]
OUTPUT: 0.3

INPUT: Please give the documented Human GIPR cAMP, HEK293T EC50 of Me-Y[dA]EGTFISDYSIALDR[Aib]AQ[Aib]K([2OEG-γGlu-γGlu-C15 diacid])FVNWLLAQKG-OH [Compound 216]
OUTPUT: 0.3

INPUT: Please give the documented Human GIPR cAMP, HEK293T EC50 of Me-Y[Aib]EGTFISDYSIALDR[Aib]AQ[Aib]KFVNWLLAQKG-OH (not fully specified (residues 1, 21)) [Compound 214]
OUTPUT: 0.3

INPUT: Please give the documented Human GIPR cAMP, HEK293T EC50 of Me-Y[Aib]EGTFISDYSI[Aib]LDR[Aib]AQ[Aib]K([2OEG-γGlu-γGlu-C15 diacid])FVNWLLAQRG-OH [Compound 207]
OUTPUT: 0.4

INPUT: Please give the documented Human GIPR cAMP, HEK293T EC50 of Me-Y[Aib]EGTFISDYSI[Aib]LDR[Aib]AQ[Aib]K([AEEA-AEEA-γGlu-γGlu-C15 diacid])FVNWLLAQKG-OH [Compound 175]
OUTPUT: 0.4

INPUT: Please give the documented Human GIPR cAMP, HEK293T EC50 of Me-Y[Aib]EGTFISDYSI[Aib]LDR[Aib]AQ[Aib]KFVNWLLAQRG-OH (not fully specified (residues 1, 21)) [Compound 208]
OUTPUT: 0.3

INPUT: Please give the documented Human GIPR cAMP, HEK293T EC50 of Me-Y[Aib]EGTFISDYSIALDR[Aib]AQ[Aib]K([2OEG-γGlu-γGlu-C15 diacid])FVNWLLAQKPSSGAPPPS-NH2 [Compound 209]
OUTPUT: 0.3

INPUT: Please give the documented Human GIPR cAMP, HEK293T EC50 of YXEGTFISDYSIXXDRXAQXNFVNWLLAQSPSSGAPPPS (N-terminal Me (Me-Tyr1); Aib at 2, 13, 17, 20; Km = Lys(R) at 14, linker printed GS (read as G5 = GGGGG), lipid C15DA (C15 diacid); C-terminal OH) [Compound 187]
OUTPUT: 0.2

INPUT: Please give the documented Human GIPR cAMP, HEK293T EC50 of Me-YAEGTFISDYSIALDR[Aib]AQ[Aib]K([2OEG-γGlu-γGlu-C15 diacid])FVNWLLAQKG-OH [Compound 217]
OUTPUT: 0.2
